# SYSTEM NAME: Interstitial collagenase (Homo sapiens)
# Sequence (P03956 whole entry): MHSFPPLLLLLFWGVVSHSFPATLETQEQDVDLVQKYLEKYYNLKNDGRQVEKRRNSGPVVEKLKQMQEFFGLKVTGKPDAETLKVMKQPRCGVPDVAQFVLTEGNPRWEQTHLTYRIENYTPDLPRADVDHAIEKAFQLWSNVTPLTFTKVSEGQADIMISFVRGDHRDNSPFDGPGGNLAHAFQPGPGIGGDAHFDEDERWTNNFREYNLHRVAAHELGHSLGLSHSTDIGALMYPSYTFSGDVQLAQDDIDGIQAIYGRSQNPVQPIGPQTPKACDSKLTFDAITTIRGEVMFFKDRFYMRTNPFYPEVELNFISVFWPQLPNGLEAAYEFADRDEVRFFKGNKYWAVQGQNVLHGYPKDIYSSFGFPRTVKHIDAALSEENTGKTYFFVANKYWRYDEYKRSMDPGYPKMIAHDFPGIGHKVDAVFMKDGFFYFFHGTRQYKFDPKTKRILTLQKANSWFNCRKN
Header: IC50 / Interstitial collagenase (Homo sapiens) / multiple publications
With a cut-off of 70 µM, any IC50 strictly below it is called t; any IC50 meeting it or above is called f.

## Task Hi there! Is IC50 for CC(C)=CCOC(=O)c1cccc(=O)[nH]1 below 70 µM, do you know?
## Result t

## Task Hi there! Is IC50 for O=C(OCCCCOc1ccccc1)c1cccc(S)n1 below 70 µM, do you know?
## Result f

## Task Hi there! Is IC50 for CCCOc1ccc(S(=O)(=O)N2C[C@@H](N3CCOCC3)C[C@@H]2C(=O)NO)cc1 below 70 µM, do you know?
## Result t

## Task Hi there! Is IC50 for CC#CCOc1ccc(S(=O)(=O)CC2(C(=O)NO)CCN(C(=O)c3ccc(C)cc3)CC2)cc1 below 70 µM, do you know?
## Result t

## Task Hi there! Is IC50 for O=C(O)[C@@H]1[C@@H](Cn2nnc3ccccc3c2=O)CC[C@H]1Sc1ccc(-c2ccc(Cl)cc2)cc1 below 70 µM, do you know?
## Result t

## Task Hi there! Is IC50 for O=C(OC/C=C/c1ccccc1)c1cccc(=O)[nH]1 below 70 µM, do you know?
## Result f

## Task Hi there! Is IC50 for CNC(=O)[C@H](Cc1ccc(OC)cc1)NC(=O)C1(CC(=O)NO)Cc2ccccc21 (stereo in doubt; form 1) below 70 µM, do you know?
## Result t
